# Test Target: T1, Ioc4 2KE (Saccharomyces cerevisiae, UniProt Q04213 1-475, K149E;K150E)
# T1 sequence: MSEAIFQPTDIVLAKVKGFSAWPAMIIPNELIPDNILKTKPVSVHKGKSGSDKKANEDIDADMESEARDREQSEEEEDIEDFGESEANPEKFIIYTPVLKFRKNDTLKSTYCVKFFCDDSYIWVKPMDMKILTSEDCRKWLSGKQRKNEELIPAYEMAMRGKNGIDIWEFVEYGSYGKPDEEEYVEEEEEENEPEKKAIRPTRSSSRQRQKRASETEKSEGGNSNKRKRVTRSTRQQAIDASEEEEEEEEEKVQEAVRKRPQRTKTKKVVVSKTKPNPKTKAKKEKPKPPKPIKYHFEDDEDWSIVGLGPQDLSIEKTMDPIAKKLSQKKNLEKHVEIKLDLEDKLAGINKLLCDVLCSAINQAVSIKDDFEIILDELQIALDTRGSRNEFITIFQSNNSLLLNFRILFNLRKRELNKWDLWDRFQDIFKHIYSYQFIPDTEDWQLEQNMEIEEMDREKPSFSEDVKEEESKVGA
# Protocol Description: EMSA; EMSA; 15 fmol NCP (30 fmol unmodified NCP) per reaction; 5% native PAGE (37.5:1) in 0.4x TBE, 2% glycerol; binding buffer, pH and temperature not given (as in cited work)
# Condition: protein: recombinant; tags: N-terminal 6xHis-MBP; label: Cy5 on sense strand; blunt
Metric Name: Kd
Param answer (str): number followed by unit.

[Q] State the recorded Kd for this entry: dsDNA 30 bp (601-derived EMSA probe) (dsDNA) DNA 1: GGCAAGGTCGCTGTTCAATACATGCACAGG DNA 2: CCTGTGCATGTATTGAACAGCGACCTTGCC
[A] 76 nM
